Target: Human Thrombin (Homo sapiens)
Assay: Inhibition of thrombin amidase activity (Kass), chromogenic substrate
Assay type: biochemical
Conditions: mean Kass over a range of concentrations; substrate N-benzoyl-Phe-Val-Arg-p-nitroanilide
Recorded Kass Human Thrombin values for a group of compounds are listed next.

>  <compound>
Cl.Nc1ccc(CNC(=O)[C@@H]2CCCN2C(=O)[C@@H](CC2CCCCC2)NCC(=O)O)cn1

>  <endpoint.label>
Kass Human Thrombin

>  <result>
29 × 10^6 (L/mole)

$$$$
>  <compound>
CCS(=O)(=O)N[C@H](CC1CCCCC1)C(=O)N1CCC[C@H]1C(=O)NCc1ccc(N)nc1.Cl

>  <endpoint.label>
Kass Human Thrombin

>  <result>
2.9 × 10^6 (L/mole)

$$$$
>  <compound>
Cl.Nc1ccc(CCNC(=O)[C@@H]2CCCN2C(=O)[C@H](N)Cc2ccccc2)cc1 [Example 14, D-Phe-Pro-p-NHCH2 CH2 C6 H4 NH2.HCl]

>  <endpoint.label>
Kass Human Thrombin

>  <result>
0.021 × 10^6 (L/mole)

$$$$

Exam item: Look up Kass Human Thrombin: Cl.O=C(O)CN[C@H](CC1CCCCC1)C(=O)N1CCC[C@H]1C(=O)NCCCC1=CCNCC1
Marked response: 0.24 × 10^6 (L/mole)

Exam item: Look up Kass Human Thrombin: CCS(=O)(=O)N[C@H](Cc1ccccc1)C(=O)N1CCC[C@H]1C(=O)NCCc1cccc(N=C(N)N)c1.Cl
Marked response: 0.02 × 10^6 (L/mole)

Exam item: Look up Kass Human Thrombin: CCS(=O)(=O)N[C@H](Cc1ccccc1)C(=O)N1CCC[C@H]1C(=O)NCCc1cccc(C(=N)N)c1.Cl
Marked response: 0.29 × 10^6 (L/mole)

Exam item: Look up Kass Human Thrombin: Cl.Cl.Cl.N=C(N)c1ccc(CNC(=O)[C@@H]2CCCN2C(=O)[C@@H](CC2CCCCC2)NCC(=O)O)nn1
Marked response: 340 × 10^6 (L/mole)

Exam item: Look up Kass Human Thrombin: Cl.Nc1cc(CCNC(=O)[C@@H]2CCCN2C(=O)[C@@H](CC2CCCCC2)NCC(=O)O)ccn1
Marked response: 12 × 10^6 (L/mole)

Exam item: Look up Kass Human Thrombin: Cl.O=C(O)CN[C@H](CC1CCCCC1)C(=O)N1CCC[C@H]1C(=O)NCCC1=CCNCC1
Marked response: 1.10 × 10^6 (L/mole)

Exam item: Look up Kass Human Thrombin: Cl.Nc1ccc(CCNC(=O)[C@@H]2CCCN2C(=O)[C@@H](CC2CCCCC2)NCC(=O)O)cn1
Marked response: 0.45 × 10^6 (L/mole)

Exam item: Look up Kass Human Thrombin: Nc1ccc(CNC(=O)[C@@H]2CCCN2C(=O)[C@@H](CC2CCCCC2)NCC(=O)O)cc1F
Marked response: 11 × 10^6 (L/mole)

Exam item: Look up Kass Human Thrombin: N=C(N)c1ccc(CNC(=O)[C@@H]2C[C@@H]3CCCC[C@@H]3N2C(=O)[C@@H](Cc2ccccc2)NCC(=O)O)cc1 (relative stereo)
Marked response: 45 × 10^6 (L/mole)

Exam item: Look up Kass Human Thrombin: Cl.O=C(O)CNC(CC1CCCCC1)C(=O)N1CCCC1C(=O)NCCC1CCNCC1 (stereo not drawn)
Marked response: 2.8 × 10^6 (L/mole)

Exam item: Look up Kass Human Thrombin: Cl.Cl.N=C(N)c1ccc(CNC(=O)C2CC3CCCCC3N2C(=O)C2NCCC3CCCCC32)cc1 (stereo not drawn)
Marked response: 38 × 10^6 (L/mole)

Exam item: Look up Kass Human Thrombin: Cl.Nc1cc(CNC(=O)[C@@H]2CCCN2C(=O)[C@@H](CC2CCCCC2)NCC(=O)O)ccn1
Marked response: 28 × 10^6 (L/mole)
